assay: Cytotoxicity against human HCT8 cells assessed as cell viability at 12.5 ug/ml incubated for 24 hrs by MTS assay; type: functional; conditions: HCT-8, 24 h, read-out: Activity
We begin with a simple list: items and their reported viability at 12.5 µg/mL.
Report only the number, with the unit % understood.

A selection of reference data follows.
Give the measured viability at 12.5 µg/mL of Cc1cs/c(=N\C(=O)c2cnn(C)c2)n1-c1ccc(Br)cc1 .
100

Give the measured viability at 12.5 µg/mL of Cn1cc(C(=O)NC(=S)Nc2ccccc2I)cn1 .
100

Need viability at 12.5 µg/mL, item Cc1cs/c(=N\C(=O)c2cnn(C)c2)n1-c1ccc(I)cc1
100

For the next question, use this molecule.
Quick check: viability at 12.5 µg/mL of Cn1cc(C(=O)NC(=S)Nc2ccccc2Br)cn1 ?
100
